biological target: α-amylase derived from pancreas of pig (Sus scrofa); construct: the α-amylase derived from pancreas of pig; from tissue; host or cells: pig pancreas; assay: Inhibitory activity against α-amylase derived from pancreas of pig (same method); format: biochemical
Sequence (P00690 16-511): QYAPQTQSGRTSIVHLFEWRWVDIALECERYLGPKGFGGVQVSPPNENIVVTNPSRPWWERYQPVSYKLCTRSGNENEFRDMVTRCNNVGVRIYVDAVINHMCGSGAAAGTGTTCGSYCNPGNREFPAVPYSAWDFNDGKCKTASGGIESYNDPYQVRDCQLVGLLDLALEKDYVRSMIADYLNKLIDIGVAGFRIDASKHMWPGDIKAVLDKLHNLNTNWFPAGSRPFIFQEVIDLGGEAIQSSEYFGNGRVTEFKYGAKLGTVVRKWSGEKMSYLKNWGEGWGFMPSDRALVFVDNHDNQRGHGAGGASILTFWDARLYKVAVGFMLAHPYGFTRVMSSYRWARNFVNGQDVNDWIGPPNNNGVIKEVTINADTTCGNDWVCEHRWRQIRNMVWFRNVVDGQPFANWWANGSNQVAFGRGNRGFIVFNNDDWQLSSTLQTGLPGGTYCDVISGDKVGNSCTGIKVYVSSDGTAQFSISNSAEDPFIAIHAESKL
value kind: IC50
Units required after the number.

In plain terms, "O=C(O)c1cc(O)c(O)c(O)c1" has a documented IC50 of 2350 µM
